Test: yeast display, Sf9 membrane polyspecificity reagent, FACS + sequencing; frameworks hold sequencing errors
Reported Property: polyreactivity (PSR sort gate)

Field: example entries. Status: answers known.
>  <Monomer Sequence>
QVQLVESGGGLVQAGGSLSLSCAASGSIFRTYALGWYRQAPGKERELVASITKSGARTYYADSVKGRFTISRDNAKNTVYLQMNSLKPEDTAVYYCAAGYYSVTSRRYRMYYWGQGTQVTVSS

>  <polyreactivity (PSR sort gate)>
high polyreactivity

$$$$
>  <Monomer Sequence>
QVQLVESGGGLVQAGGSLRLSCAASGFTFSPNAMGWYRQAPGKERELVAAISKRGASTYYADSVKGRFTISRDNAKNTVYLQMNSLKPEDTAVYYCNVGASARKPYDYWGQGTQVTVSS

>  <polyreactivity (PSR sort gate)>
high polyreactivity

$$$$
>  <Monomer Sequence>
QVQLVESGGGLVQAGGSLRLSCAASGSTFDPNAMGWYRQAPGKERELVAVIDSGDGTTNYADSVKGRFTISRDNAKNTVYLQMNSLKPEDTAVYYCNKDTLVYGYVQDYEYWGQGTQVTVSS

>  <polyreactivity (PSR sort gate)>
low polyreactivity

$$$$
>  <Monomer Sequence>
QVQLLESGGGLVQAGGSLRLSCAASGRIFGYYTMGWYRQAPGKERELVAGITRRGGRTYYADSVKGRFTISRDNAKNTVYLEMNSLKPEDTAGYYCAVRSGVNFYYWGQGTQVTVSS

>  <polyreactivity (PSR sort gate)>
high polyreactivity

$$$$

Then there is this sequence:
Q: Recorded polyreactivity (PSR sort gate) for "QVQLVESGGGLVQAGGSLRLSCAASGSIFIVYAMGWYRQAPGKERELVATISWSGGSTSYADSVKGRFTNSRDNAKNTVYLQMNSLKPEDTAFYYCNTLVRITEYDSWGQGTQVTVSS" , please?
A: low polyreactivity

###

Assay: yeast display, Sf9 membrane polyspecificity reagent, FACS + sequencing; frameworks hold sequencing errors
Reported Property: polyreactivity (PSR sort gate)

>  <Monomer Sequence>
QVQLVESGGGLVQAGGSLRLSCAASGSIFPAYALGWYRPAPGKERELVAAITSSCGSTYYADSVKGRFTISRDNAKNTVYLQMNSLKPEDTAVYYCATVYPGDSYVYRFDYWGQGTQVTVSS

>  <Reported Property>
polyreactivity (PSR sort gate)

>  <Experimental Result>
low polyreactivity

$$$$
>  <Monomer Sequence>
QFQLVESGGGLVQAGGSLRLSCAASGSIFHPYTMGWYRPAPGKERELVAAISWSGGNTNYADSVKGRFTISRDNAKNTVYLQMNSLKPEDTAVYYCNKATNLSGGYDSWGQGTQVTVSS

>  <Reported Property>
polyreactivity (PSR sort gate)

>  <Experimental Result>
low polyreactivity

$$$$
>  <Monomer Sequence>
QVQLVESRGGLVQAGGSLRLSCAASGRLFYSYAMGWNRQEPGKEREFVAAISRSGARTYYADSVKGRFTISRDNAKNTVYLQMNSLKPEDTAVYYCAADDFSTVEYDYWGQGTQVTVSS

>  <Reported Property>
polyreactivity (PSR sort gate)

>  <Experimental Result>
low polyreactivity

$$$$

###

Assay: yeast display, Sf9 membrane polyspecificity reagent, FACS + sequencing; frameworks hold sequencing errors
Reported Property: polyreactivity (PSR sort gate)

Reference set, count: 4
>  <Monomer Sequence>
QVQLVESGGGLVQAGGTLGLSCAASGFIITQYAMGRYRQAPGKERELVAAISGNGGRTYYADSVKGRFTISRDNAKNTVYLQLNSLKPEDTAVYYCAVTRPGRRYPFGYDYWGQGTQVTVSS

>  <polyreactivity (PSR sort gate)>
high polyreactivity

$$$$
>  <Monomer Sequence>
QVQLVESGGGLVQAGGSLRLSCAASGSTFDPNAMGWYRQAPGKETELVAAIDSGGSTYYADSVKGRFTISRDNAKNTVYLQMNSLKPEDTAVYYCATKQPTWVPRVIISYTKFDYWGQGTQVTVSS

>  <polyreactivity (PSR sort gate)>
low polyreactivity

$$$$
>  <Monomer Sequence>
HVQLVESGGGLVQAGGSQRLSCAPSGSTFYYNAMGSYRQAPGKERELVAAISKTGGSTYYADSVKGRFTISRDYAKNTVYLQMNSLKPVDTAVYYCAAVGSRGAWARRGYWGQGTHVTVSS

>  <polyreactivity (PSR sort gate)>
high polyreactivity

$$$$
>  <Monomer Sequence>
QVQLVESGGGLVQAGGSLRLSCAASGFTFRVNAMGWYRQAPGKERELVASITVSGGNTYYADSVKGRFTISRDNEKNTVYLLMNSLKPEDTAVYYCATDFSPVYYTRYDYWGQGTQVTVSS

>  <polyreactivity (PSR sort gate)>
low polyreactivity

$$$$

Kindly review the next sequence as well.
Q: Please report the recorded polyreactivity (PSR sort gate) for "QVQLVESGGGLVQAGGSLRLRCAASGSTSAYYAMGWYRQAPGKERELVAAISWSGGRTYSADSVKGRFTISRDNAKNTVYLQMNSLKPEDTAVYYCAARFWFTKGYDYWGQGTQVTVSS" .
A: high polyreactivity

###

Assay: yeast display, Sf9 membrane polyspecificity reagent, FACS + sequencing; frameworks hold sequencing errors
Reported Property: polyreactivity (PSR sort gate)

# example entries with known answers
>  <Monomer Sequence>
QVQLVESGGGLVQAGGSLRLSCAASGSSFAGNAMGWYRQAPGKERELVAAIDSSTGSTYYADSVKGRFTISRDNAKNTVYLQMNSLKPEDTAVYYCNKTSFLVKLDYWGQGTQVTLSS

>  <Experimental Result>
low polyreactivity

$$$$
>  <Monomer Sequence>
QVQLVETGGGLVQAGGSLRLSCAASGSIFVRKAMGWYRQAPGKERELVATISYRGASTYYADSVKGRFTISRDNAKNTVYLQLNCLKPEDTAVYYCNAPRFVGLNVYGYDYWGQGTQVTLSS

>  <Experimental Result>
high polyreactivity

$$$$
>  <Monomer Sequence>
QVQLVESGGGLVQAGGSLRLICAASGSTFRHYAMGWYRQAPGKERELVAAIRRSGGTTYYADSVKGRFTISRDNAKNTVYLHMNSLKPEDTAVYYCAARLTVRKLVRFDYWGQGTQVTVSS

>  <Experimental Result>
low polyreactivity

$$$$
>  <Monomer Sequence>
QVQLVESGGGLVQAGGSLRLSCAASGSILAVNAMGWYRQAPGKERELVAAISSRGGSTSYADSVKGRFTISRDNAKNTVYLQMNSLKPEDTAVYYCAVRAVRRLRTSVPVRFYYWGQGTQVTVSS

>  <Experimental Result>
high polyreactivity

$$$$
>  <Monomer Sequence>
QVQLVESGGGLFQAGGSLRLSCAATVSNYRYYAMGWYRQAPGKETELVAYITSSGGSTYYADSVKGLFTISRDYAKNTVYLQMNSLKPEDTAVYYCAALSWLYVYPFTEYDYWGQGTQVTVSS

>  <Experimental Result>
low polyreactivity

$$$$

Q: What value of measured polyreactivity (PSR sort gate) is listed for "QVQLVESGGGLVQAGGSLRLSCAASGRIFRYNAMGWYRQAPGKERELVAAISWGGGSTYYADSVKGRFTISRDNAKNTVYLQMNSLKPEDTAVYYCAVTSGSSFRMGYWGQGTQVTVSS" ?
A: high polyreactivity

Q: Fill in: polyreactivity (PSR sort gate) of "QVQLVESGGGLVQAGGSLRLSCAASGRTFWYNAMGWYRQAPGKERELVATINSVGSTNYADSVKGRFTISRDNAKNTVYLQMNSLKPEDTAVYDCNAGYGYVRGRKGGAIVKYYYWGQGTQVTVSS" is ___
A: high polyreactivity

###

Test: yeast display, Sf9 membrane polyspecificity reagent, FACS + sequencing; frameworks hold sequencing errors
Reported Property: polyreactivity (PSR sort gate)

>  <Monomer Sequence>
QVQLVESGGGLVQAGGSLRLSCAASGRTFRPYAMGWYRQAPGKERELVAAISSRGSSTYYADSVKGRFTISRDNAKNTVYLQMNSLKPEDTAVYYCAARSYWGGLRYDYWGQGTQVTVSS

>  <polyreactivity (PSR sort gate)>
high polyreactivity

$$$$
>  <Monomer Sequence>
QVQLVESGGVLVQAGGSLRLSCAASGRTIWYYAMGWYRQAPGKERELVASITRSGGTTYADSVKGRFTISRDNAKNTVYLQMNSLKPEDTAVYYCAATRPRIPVYQNNYGYWGQGTQLTVSS

>  <polyreactivity (PSR sort gate)>
high polyreactivity

$$$$
>  <Monomer Sequence>
PVQLVEAGGGLVQAGGSLRLSCAASGFTIRIYTMGWYRQAPGKERELVAAISSRGGSTYYADSVKGRFTISRDNAKITVYLQMNSLKPEDTAVYYCAKTPYYRYAKQRYTSSHDYWGQGTQVTVSS

>  <polyreactivity (PSR sort gate)>
high polyreactivity

$$$$
>  <Monomer Sequence>
QVQLVESGGGLVQAGGSLRLSSAGSGRTFLANAMGWYRQAPGKEREFVAAIDWRTGSTYYADSVKGRFTISRDNAKNTVYLLMNSLKPEDTAVYYCAKDSSSYYYAHFYDWGQGTQVTVSS

>  <polyreactivity (PSR sort gate)>
high polyreactivity

$$$$

Q: Quick one: polyreactivity (PSR sort gate) for "QVQLVESGGGLVQAGGSLRLSCAASGFAFSYYAMGWYIPAPGKEREFVASIDWSGGSTYYADSVKGRFTISRDNAKNTVYLQMNSLKPEDTAVYYCAAELDYFPGYDYWGQGTQVTVSS" ?
A: low polyreactivity

Q: Tell me the measured polyreactivity (PSR sort gate) of "QVQLVESGGGLVQAGGSLRLSCAASGRIFPDYDMGWYRQAPGKERELVAAITQRGGSTYADSVKGRFTISRDNAKNTVYLQMNSLKPEDTAVYYCAREYYEGYEYWGQGTQVTVSS" , please.
A: low polyreactivity

Data credit: the nanobody polyreactivity screen of Harvey et al. (2022)
